Measured values drawn from patent US20210246166A1 for this set.

Subject of test: recombinant rat MASP2 active protease (amino acids 296-685, C-terminal His Tag) (rat, UniProt Q9JJS8 296-685)
Sequence (Q9JJS8 other isoform, or with tags, fused parts or gaps limits assumed): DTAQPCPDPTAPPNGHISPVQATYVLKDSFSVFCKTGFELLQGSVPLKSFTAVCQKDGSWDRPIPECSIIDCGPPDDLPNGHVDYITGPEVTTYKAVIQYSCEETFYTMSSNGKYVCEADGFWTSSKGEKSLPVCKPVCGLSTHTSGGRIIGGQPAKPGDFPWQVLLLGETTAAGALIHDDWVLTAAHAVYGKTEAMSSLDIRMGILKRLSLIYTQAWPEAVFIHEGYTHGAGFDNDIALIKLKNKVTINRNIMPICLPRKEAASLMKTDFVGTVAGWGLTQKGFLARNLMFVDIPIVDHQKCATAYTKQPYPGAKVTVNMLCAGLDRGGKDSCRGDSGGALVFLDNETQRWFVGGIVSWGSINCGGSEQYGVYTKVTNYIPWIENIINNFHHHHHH
Measurement protocol: cell-based or functional assay
Bridge positions count the residues as written; N and C are the ends. Square brackets hold non-standard residues; d marks the D form. Ends that are not written are not given here. * marks the point of attachment. Oic = O=C(O)[C@@H]1C[C@@H]2CCCC[C@@H]2N1; Cyclobutylacetic = O=C(CC1CCC1)*; tBuAla = CC(C)(C)C[C@H](N)C(=O)O; (3-Me)H = L-3-methylhistidine; Pen = CC(C)(S)[C@H](N)C(=O)O; Sar = CNCC(=O)O
Assay endpoint: rat MASP2 IC50 (nM)
# number only, unit nM dropped from output

// known answers, use as guide
[Sar]ICSRSLP[Oic]I[Pen]IPT-OH (disulfide 3-11; N-terminus assumed; SMILES CC[C@H](C)[C@H](NC(=O)CNC)C(=O)N[C@H]1CSSC(C)(C)[C@@H](C(=O)N[C@H](C(=O)N2CCC[C@H]2C(=O)N[C@H](C(=O)O)[C@@H](C)O)[C@@H](C)CC)NC(=O)[C@H]([C@@H](C)CC)NC(=O)[C@@H]2C[C@@H]3CCCC[C@@H]3N2C(=O)[C@@H]2CCCN2C(=O)[C@H](CC(C)C)NC(=O)[C@H](CO)NC(=O)[C@H](CCCNC(=N)N)NC(=O)[C@H](CO)NC1=O) [Example 492: ((N-Me)G)-IC+SRSLP-(Oic)-I-(Pen)+IPT-OH]	81
[(3-Me)H]ICSRSLP[Oic]I[Pen]IP-NH2 (disulfide 3-11) [Example 444: ((3-Me)H)-IC+SRSLP-(Oic)-I-(Pen)+IP-NH2]	9.8
Cyclobutylacetic-ICSRS[tBuAla]PPI[Pen]IP-NH2 (disulfide 2-10; SMILES CC[C@H](C)[C@H](NC(=O)CC1CCC1)C(=O)N[C@H]1CSSC(C)(C)[C@@H](C(=O)N[C@H](C(=O)N2CCC[C@H]2C(N)=O)[C@@H](C)CC)NC(=O)[C@H]([C@@H](C)CC)NC(=O)[C@@H]2CCCN2C(=O)[C@@H]2CCCN2C(=O)[C@H](CC(C)(C)C)NC(=O)[C@H](CO)NC(=O)[C@H](CCCNC(=N)N)NC(=O)[C@H](CO)NC1=O) [Example 284: (Cyclobutylacetic)-IC+SRS-((tBu)A)-PPI-(Pen)+IP-NH2]	9.7

Next:
Exercise: Answer with the recorded rat MASP2 IC50 of [Sar]ICSRSLP[Oic]I[Pen]IPG[dD]-OH (disulfide 3-11; N-terminus assumed; SMILES CC[C@H](C)[C@H](NC(=O)CNC)C(=O)N[C@H]1CSSC(C)(C)[C@@H](C(=O)N[C@H](C(=O)N2CCC[C@H]2C(=O)NCC(=O)N[C@H](CC(=O)O)C(=O)O)[C@@H](C)CC)NC(=O)[C@H]([C@@H](C)CC)NC(=O)[C@@H]2C[C@@H]3CCCC[C@@H]3N2C(=O)[C@@H]2CCCN2C(=O)[C@H](CC(C)C)NC(=O)[C@H](CO)NC(=O)[C@H](CCCNC(=N)N)NC(=O)[C@H](CO)NC1=O) [Example 495: ((N-Me)G)-IC+SRSLP-(Oic)-I-(Pen)+IPGd-OH] only.
Key: 66
